# system under test: Polyunsaturated fatty acid lipoxygenase ALOX12 (Homo sapiens) (UniProt P18054)
# Sequence (P18054 whole entry, looked up): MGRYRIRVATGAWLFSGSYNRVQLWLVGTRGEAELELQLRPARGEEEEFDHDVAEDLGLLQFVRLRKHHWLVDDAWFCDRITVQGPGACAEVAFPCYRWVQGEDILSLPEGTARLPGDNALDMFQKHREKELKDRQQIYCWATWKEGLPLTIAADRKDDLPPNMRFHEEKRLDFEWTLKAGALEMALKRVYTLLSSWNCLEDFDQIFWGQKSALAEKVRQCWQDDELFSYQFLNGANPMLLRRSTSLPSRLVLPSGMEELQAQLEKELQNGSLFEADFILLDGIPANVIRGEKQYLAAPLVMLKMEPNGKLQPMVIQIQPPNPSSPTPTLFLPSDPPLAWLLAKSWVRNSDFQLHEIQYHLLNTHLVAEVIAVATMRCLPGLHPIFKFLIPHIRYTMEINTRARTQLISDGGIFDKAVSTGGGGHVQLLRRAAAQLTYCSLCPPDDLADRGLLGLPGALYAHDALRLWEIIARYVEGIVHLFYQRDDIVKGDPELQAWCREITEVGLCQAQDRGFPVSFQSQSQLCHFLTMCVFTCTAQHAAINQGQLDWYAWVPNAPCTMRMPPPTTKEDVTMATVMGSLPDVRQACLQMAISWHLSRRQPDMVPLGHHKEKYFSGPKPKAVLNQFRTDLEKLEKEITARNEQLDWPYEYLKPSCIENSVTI
# test method notes: Activators of 12-hLO (12-human lipoxygenase): 12hLO Cuvette-Based Hit Validation Assay of Followup Compounds
# details: purified 12-hLO, cuvette UV 234 nm product formation
Activity calls are given as the source filed them.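 The calls were made as follows: active = compounds that raised 12-lipoxygenase product formation in the cuvette follow-up test, with a fitted potency; inactive = the rest, inconclusive results apart.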
Return exactly one item of True (active), False (inactive)

Solved entries:
Oc1ccc(CN2CCCc3ccccc32)c2cccnc12; True
Oc1ccc(-c2nc(-c3ccc(O)c(O)c3)cs2)cc1; False
O=C(NC(=S)Nc1ccccc1N1CCCC1)c1ccc([N+](=O)[O-])cc1; True

## Task Could you please tell me the result logged for O=C(Nc1nnc(-c2ccccn2)o1)c1ccc(Br)cc1 in this assay?
## Result False
